# Lookup of reported composite z-score keyed by entry
Test system: Sam68 (KHDRBS1)
TEST METHOD NOTES: Sam68 small-molecule binders, primary screen, biochemical, small-molecule microarray, 635 nm fluorescence (AID 1125);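 note: score merges 667 nm channel intensity with signal to noise over triplicate slides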
STUDY CONDITIONS: small-molecule microarray binding, higher = more signal

>  <MOLECULE>
CO[C@@H]1COC(=O)CC=C[C@@H](C)[C@@H]2C=C[C@H](O)[C@@H](COC(=O)CCC[C@H]1C)O2

>  <composite z-score>
0.0503

$$$$
>  <MOLECULE>
O[C@@H](Cc1ccccc1)[C@H]1C2C=CCCC(c3ccccc3)=C2CN1Cc1cccc(Cl)c1 (stereo not given in full)

>  <composite z-score>
1.31

$$$$
>  <MOLECULE>
COC(=O)[C@H](C)NC(=O)CCC1CC(OC(=O)NCc2ccc3c(c2)OCO3)CC2(CCCC(COC(=O)NCCOc3ccccc3)O2)O1 (stereo not given in full)

>  <composite z-score>
1.3

$$$$
>  <MOLECULE>
O=C1C[C@@H](O)[C@@H](O)[C@@H]2[C@@H]3C(=O)N(c4ccc(F)cc4F)C(=O)[C@@H]3CC[C@@H]12

>  <composite z-score>
0.236

$$$$
>  <MOLECULE>
CN(C)c1ccc(C(O)C2C=CC3C(=O)N(c4ccccc4)C(=O)C3N2Nc2ccccc2F)cc1 (stereo not given)

>  <composite z-score>
0.87

$$$$
>  <MOLECULE>
CC(C)(C)OC(=O)CC[C@]1(C(=O)NCc2ccccc2)N=C(c2ccc(OCCCO)cc2)O[C@H]1c1ccccc1

>  <composite z-score>
1.3

$$$$
>  <MOLECULE>
COc1ccc(COC(=O)NN=C2C[C@@H](O)[C@@H](O)[C@@H]3[C@@H]4C(=O)N(Cc5ccc6c(c5)OCO6)C(=O)[C@@H]4CC[C@@H]23)cc1

>  <composite z-score>
-0.395

$$$$
>  <MOLECULE>
NC(=O)NCC#Cc1ccc2c(c1)[C@]1(C(=O)N2)[C@H](c2ccc(O)cc2)N2[C@H](c3ccccc3)[C@H](c3ccccc3)OC(=O)[C@H]2[C@@H]1C(=O)N1CCCCCCC1

>  <composite z-score>
0.792

$$$$
>  <MOLECULE>
COCC1=C2[C@@H](CCc3ccccc3)OB(O)C[C@@H]2n2c(=O)n(-c3ccccc3)c(=O)n2C1

>  <composite z-score>
-0.0265

$$$$
>  <MOLECULE>
CO[C@@H]1COC(=O)CCC[C@@H](C)[C@H](OC)COC(=O)[C@H](Cc2ccccc2)NC(=O)CC=C[C@H]1C

>  <composite z-score>
-1.56

$$$$
>  <MOLECULE>
O=C1C2=CC[C@H]3C(=O)N(Cc4ccc5c(c4)OCO5)C(=O)[C@H]3[C@H]2[C@H](O)[C@@H]2O[C@H]12

>  <composite z-score>
0.21

$$$$
>  <MOLECULE>
CC(C)=NOCc1ccc(-c2cc(-c3ccccc3)no2)cc1

>  <composite z-score>
0.059

$$$$
>  <MOLECULE>
[N-]=[N+]=NCc1ccccc1C[C@]1(C(=O)NCc2ccccc2)N=C(c2ccc(OCCCO)cc2)O[C@H]1c1ccccc1N=[N+]=[N-]

>  <composite z-score>
1.09

$$$$
>  <MOLECULE>
CCOC(=O)[C@H](Cc1ccccc1)NC(=O)CCC1CC(OC(=O)NCc2ccc3c(c2)OCO3)CC2(CCCC(COC(=O)NCc3cccc(C(F)(F)F)c3)O2)O1 (stereo not given in full)

>  <composite z-score>
0.843

$$$$
>  <MOLECULE>
CC[C@@H](c1ccccc1)n1c(=O)n2n(c1=O)[C@H]1[C@H](O)[C@@H]3O[C@@H]3C(=NOCC=C(C)CCC=C(C)C)[C@H]1CC2

>  <composite z-score>
1.29

$$$$
